system: normal FL cells; experiment: cells; type: cell-based; conditions: FL normal cells, MTT; read-out: IC50
assay endpoint: log10(IC50) (log10 of the value in µg/mL)
A difference of one corresponds to tenfold IC50; all values are log10 with IC50 in µg/mL.

Solved entries:
{"columns": ["compound", "log10(IC50)"],
 "data": [
  ["Cc1cccc(-c2cc(-c3ccccn3)nc(N[C@@H]3O[C@H](CO)[C@@H](O)[C@H](O)[C@H]3O)n2)c1 [Compound 4]", 1.89],
  ["CC(=O)OC[C@H]1O[C@@H](Nc2nc(-c3ccncc3)cc(-c3ccc(C)cc3)n2)[C@H](OC(C)=O)[C@@H](OC(C)=O)[C@@H]1OC(C)=O [Compound 18]", 0.87],
  ["O=c1[nH]cc(F)c(=O)[nH]1 [Compound 5FU, 5-fluorouracil, reference compound]", 1.77],
  ["CC(=O)OC[C@H]1O[C@@H](Nc2nc(-c3ccc(C)cc3)cc(-c3ccccn3)n2)[C@H](OC(C)=O)[C@@H](OC(C)=O)[C@@H]1OC(C)=O [Compound 16]", 0.80],
  ["Cc1ccccc1-c1cc(-c2ccccn2)nc(N[C@@H]2O[C@H](CO)[C@@H](O)[C@H](O)[C@H]2O)n1 [Compound 1]", 1.89]
]}

Lookup: For Cc1ccc(-c2cc(-c3ccccn3)nc(N[C@@H]3O[C@H](CO)[C@@H](O)[C@H](O)[C@H]3O)n2)cc1 [Compound 7] , write its log10(IC50).
Found: 2.41
